Every entry's value here was drawn from paper PMC10187112.

- Assay target: human dopamine D2 (D2S) receptor (Homo sapiens)
- Construct: expressed in transfected cells; host or cells: CHO-K1
- Sequence (P14416 1-414 isoform P14416-2): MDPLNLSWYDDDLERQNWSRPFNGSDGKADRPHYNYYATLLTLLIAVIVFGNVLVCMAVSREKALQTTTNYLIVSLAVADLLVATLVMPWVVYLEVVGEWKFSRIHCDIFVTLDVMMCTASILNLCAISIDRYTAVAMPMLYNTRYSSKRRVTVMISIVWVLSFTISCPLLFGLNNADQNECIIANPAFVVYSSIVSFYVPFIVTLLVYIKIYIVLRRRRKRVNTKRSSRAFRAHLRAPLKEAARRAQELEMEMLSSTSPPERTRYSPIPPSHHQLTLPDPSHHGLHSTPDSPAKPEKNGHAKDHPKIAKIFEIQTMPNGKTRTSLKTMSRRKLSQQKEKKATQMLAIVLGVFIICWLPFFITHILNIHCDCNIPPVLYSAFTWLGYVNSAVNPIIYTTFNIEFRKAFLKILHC
- Protocol: Competition radioligand binding, [3H]-spiperone, CHO-K1 membranes
- Condition: human cloned D2S; read-out: Ki D2 (converted)

- Molecule: "O=C(NCCCN1CCN(c2cccnc2)CC1)c1n[nH]c2ccccc12 [Compound 6]"
  Ki, nM: 1010
- Molecule: "O=C(NCCCN1CCN(c2ccccc2C(F)(F)F)CC1)c1n[nH]c2ccccc12 [Compound 12]"
  Ki, nM: 45.2
- Molecule: "O=C(NCCCN1CCN(c2ccc(F)cc2)CC1)c1n[nH]c2ccccc12 [Compound 11]"
  Ki, nM: 450
- Molecule: "COc1cccc(N2CCN(CCCNC(=O)c3n[nH]c4ccccc34)CC2)c1 [Compound 3]"
  Ki, nM: 315
- Molecule: "O=C(NCCCN1CCN(c2ccccn2)CC1)c1n[nH]c2ccccc12 [Compound 5]"
  Ki, nM: 339
- Molecule: "COc1ccccc1N1CCN(CCCNC(=O)c2n[nH]c3ccccc23)CC1 [Compound 2]"
  Ki, nM: 22.7
- Molecule: "O=C(NCCCN1CCN(c2ccccc2)CC1)c1n[nH]c2ccccc12 [Compound 1]"
  Ki, nM: 69
- Molecule: "O=C(NCCCN1CCN(c2ncccn2)CC1)c1n[nH]c2ccccc12 [Compound 8]"
  Ki, nM: 480
- Molecule: "CCOc1ccccc1N1CCN(CCCNC(=O)c2n[nH]c3ccccc23)CC1 [Compound 15]"
  Ki, nM: 19.8
- Molecule: "O=C(NCCCN1CCN(c2ccccc2Cl)CC1)c1n[nH]c2ccccc12 [Compound 13]"
  Ki, nM: 69.7
- Molecule: "CSc1ccccc1N1CCN(CCCNC(=O)c2n[nH]c3ccccc23)CC1 [Compound 14]"
  Ki, nM: 7.05
- Molecule: "O=C(NCCCN1CCN(c2ccccc2F)CC1)c1n[nH]c2ccccc12 [Compound 9]"
  Ki, nM: 42.2

* * *

- Assay target: human serotonin 5-HT1A receptor (Homo sapiens, UniProt P08908)
- Construct: expressed in transfected cells; host or cells: HEK293
- Sequence (P08908 whole entry): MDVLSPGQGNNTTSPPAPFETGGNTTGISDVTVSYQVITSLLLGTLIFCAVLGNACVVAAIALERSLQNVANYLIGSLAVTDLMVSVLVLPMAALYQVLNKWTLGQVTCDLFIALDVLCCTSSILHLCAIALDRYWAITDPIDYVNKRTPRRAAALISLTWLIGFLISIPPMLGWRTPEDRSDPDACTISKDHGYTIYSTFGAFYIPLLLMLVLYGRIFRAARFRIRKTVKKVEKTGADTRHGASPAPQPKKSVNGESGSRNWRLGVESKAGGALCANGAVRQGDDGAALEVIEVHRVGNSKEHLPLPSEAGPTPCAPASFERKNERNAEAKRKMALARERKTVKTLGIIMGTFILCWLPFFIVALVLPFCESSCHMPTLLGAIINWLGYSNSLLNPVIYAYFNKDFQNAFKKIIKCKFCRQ
- Protocol: Competition radioligand binding, [3H]-8-OH-DPAT, HEK293 membranes
- Condition: human cloned 5-HT1A; read-out: Ki 5-HT1A (converted)
Entries and their Ki values follow.

- Query smiles: "O=C(NCCCN1CCN(c2ccccc2)CC1)c1n[nH]c2ccccc12"
  Reading unit: "nM"
  Ki: 155
- Query smiles: "COc1cccc(N2CCN(CCCNC(=O)c3n[nH]c4ccccc34)CC2)c1"
  Reading unit: "nM"
  Ki: 110
- Query smiles: "O=C(NCCCN1CCN(c2cccc(F)c2)CC1)c1n[nH]c2ccccc12"
  Reading unit: "nM"
  Ki: 114
- Query smiles: "CSc1ccccc1N1CCN(CCCNC(=O)c2n[nH]c3ccccc23)CC1"
  Reading unit: "nM"
  Ki: 12.4
- Query smiles: "O=C(NCCCN1CCN(c2ccc(F)cc2)CC1)c1n[nH]c2ccccc12"
  Reading unit: "nM"
  Ki: 607
- Query smiles: "O=C(NCCCN1CCN(c2ccccn2)CC1)c1n[nH]c2ccccc12"
  Reading unit: "nM"
  Ki: 113
- Query smiles: "O=C(NCCCN1CCN(c2ccccc2Cl)CC1)c1n[nH]c2ccccc12"
  Reading unit: "nM"
  Ki: 107
- Query smiles: "O=C(NCCCN1CCN(c2ccccc2F)CC1)c1n[nH]c2ccccc12"
  Reading unit: "nM"
  Ki: 135
- Query smiles: "CCOc1ccccc1N1CCN(CCCNC(=O)c2n[nH]c3ccccc23)CC1"
  Reading unit: "nM"
  Ki: 46.9
